// reported glass transition temperature per item
Please respond with the number in °C and leave the unit unwritten.

Please review the entries below; each comes with its answer.
Compound	Value Units	Result Value
*CC(CO*)C(C)(C)C (repeat unit)	°C	-4.00
*CC(*)(C)C(=O)OCCN(CC)c1ccc(/N=N/c2ccc([N+](=O)[O-])c3ccccc23)cc1 (repeat unit)	°C	116.00
*Oc1cc(C(C)(C)C)c(Oc2ccc(C(=O)Nc3c(C)cc(C(C)(C)c4cc(C)c(NC(=O)c5ccc(*)cc5)c(C)c4)cc3C)cc2)cc1C(C)(C)C (repeat unit)	°C	295.00
*CC(*)(F)C(=O)OCC (repeat unit)	°C	94.00

Prompt: Consider the compound *c1cccc(N2C(=O)c3ccc(Oc4cccc5c(Oc6ccc7c(c6)C(=O)N(*)C7=O)cccc45)cc3C2=O)c1 (repeat unit) and give its recorded glass transition temperature.
Completion: 260.00

* * *

Entries are grouped by glass transition temperature into these classes: lower level (below 80 °C), middle level (80 °C to below 200 °C), upper level (200 °C or more)

Prompt: Bin? *c1ccc2c(c1)C(=O)N(c1ccc(Oc3ccc(C(=O)c4ccc(Oc5ccc(N6C(=O)c7ccc(C(*)(C(F)(F)F)C(F)(F)F)cc7C6=O)cc5)cc4)cc3)cc1)C2=O (repeat unit)
Completion: upper level

Prompt: Bin? *c1ccc(Oc2ccc(C(C)(C)c3ccc(Oc4ccc(N5C(=O)CC(=O)N(*)C5=S)cc4)cc3)cc2)cc1 (repeat unit)
Completion: middle level

Prompt: Bin? *CC(O)CN(C)S(=O)(=O)c1cccc(S(=O)(=O)N(C)CC(O)COc2ccc(O*)cc2)c1 (repeat unit)
Completion: lower level

* * *

// reported glass transition temperature per item
Please respond with the number in °C and leave the unit unwritten.

Please review the entries below; each comes with its answer.
Molecule	glass transition temperature, °C
*Oc1cc(CCC)cc(OC(=O)c2cccc(C(*)=O)c2)c1 (repeat unit)	129.00
*/C=C(\C#N)C(=O)OCCCCCCCCCCOC(=O)/C(C#N)=C/c1ccc2c(c1)c1cc(*)ccc1n2CCCCCCC (repeat unit)	59.00
*Oc1ccc(C(c2ccc(OC(=O)c3ccc(Oc4ccc(C(*)=O)cc4)cc3)cc2)(C(F)(F)F)C(F)(F)F)cc1 (repeat unit)	181.00
*c1cc(C)c(Cc2cc(C)c(N3C(=O)c4ccc(Oc5ccc(Oc6ccc7c(c6)C(=O)N(*)C7=O)cc5)cc4C3=O)cc2C)cc1C (repeat unit)	278.00
*c1ncnc(N(CCCCN(*)c2ccccc2)c2ccccc2)n1 (repeat unit)	91.00

Now look at this one.
Prompt: Consider the molecule *CCCCCCCCn1c2ccccc2c2cc(/C=C(\C#N)C(=O)OCCCCCCOC(=O)/C(C#N)=C/c3ccc4c(c3)c3ccccc3n4*)ccc21 (repeat unit) and give its recorded glass transition temperature.
Completion: 96.70

* * *

// reported glass transition temperature per item
Please respond with the number in °C and leave the unit unwritten.

Please review the entries below; each comes with its answer.
Molecule	Value Units	glass transition temperature
*c1cc(C(c2ccc(OCCN(C)c3ccc(/C=C/C4=CC(=C(/C#N)C(=O)OCCc5ccccc5)/CC(C)(C)C4)cc3)c(N3C(=O)c4ccc(Oc5ccc6c(c5)C(=O)N(*)C6=O)cc4C3=O)c2)(C(F)(F)F)C(F)(F)F)ccc1OCCN(c1ccccc1)c1ccc(/C=C/C2=CC(=C(/C#N)C(=O)OCCc3ccccc3)/CC(C)(C)C2)cc1 (repeat unit)	°C	177.00
*Oc1ccc(Sc2ccc(Oc3ccc4c(=O)n5c6cc(Oc7ccc8c(c7)nc7c9ccc(*)c%10cccc(c(=O)n87)c%109)ccc6nc5c5cccc3c45)cc2)cc1 (repeat unit)	°C	346.00
*c1cccc(Oc2ccc(-c3ccc(Oc4cccc(-n5c(=O)c6cc7c(=O)n(*)c(=O)c7cc6c5=O)c4)cc3)cc2)c1 (repeat unit)	°C	251.00
*Oc1ccc(Oc2ccc(Oc3ccc(S(=O)(=O)c4ccc(*)cc4)cc3)cc2)cc1 (repeat unit)	°C	192.00
*CC(*)C(=O)OCCCCCCOc1ccc(-c2ccc(C#N)cc2)cc1 (repeat unit)	°C	45.00
*c1ccc(Oc2ccc(-c3nc4cc(Oc5ccc(NC(=O)c6cc(C(=O)Nc7ccc(Oc8ccc9nc(-c%10ccc([N+](=O)[O-])cc%10)c(*)nc9c8)cc7)cc(N7C(=O)c8ccccc8C7=O)c6)cc5)ccc4nc3-c3ccc([N+](=O)[O-])cc3)cc2)cc1 (repeat unit)	°C	305.00
*Oc1cccc(N(c2ccccc2)c2ccc(-c3ccc(N(c4ccccc4)c4cccc(OC(=O)OCCOCCOC(*)=O)c4)cc3)cc2)c1 (repeat unit)	°C	113.00
*c1cccc(-c2nc3ccc(Oc4ccc5nc(*)c(-c6ccccc6)nc5c4)cc3nc2-c2ccccc2)c1 (repeat unit)	°C	270.00

Prompt: Consider the molecule *CC(*)(C)C(=O)OCCCCCCCCCOc1ccc2cc(C(=O)Oc3ccccc3)ccc2c1 (repeat unit) and give its recorded glass transition temperature.
Completion: 18.00

Prompt: Consider the molecule */C(=C(\[2H])C([2H])([2H])C(*)([2H])[2H])C([2H])([2H])[2H] (repeat unit) and give its recorded glass transition temperature.
Completion: -58.00

Prompt: Consider the molecule *O[Si](C)(C)O[Si](C)(C)Oc1ccc(-c2ccc(*)cc2)cc1 (repeat unit) and give its recorded glass transition temperature.
Completion: -4.00

Prompt: Consider the molecule *COc1ccc(C(=O)OC(=O)c2ccc(O*)cc2)cc1 (repeat unit) and give its recorded glass transition temperature.
Completion: 84.00

Prompt: Consider the molecule *CC(*)(C)C(=O)OC1(C)C2CC3CC(C2)CC1C3 (repeat unit) and give its recorded glass transition temperature.
Completion: 165.00

Prompt: Consider the molecule *CC(*)(C)C(=O)OCC(F)(F)C(F)(F)C(F)(F)C(F)F (repeat unit) and give its recorded glass transition temperature.
Completion: 47.00

Prompt: Consider the molecule *Oc1c(C)cc(-c2cc(C)c(Oc3ccc(C(=O)c4ccc(*)cc4)cc3)c(C)c2)cc1C (repeat unit) and give its recorded glass transition temperature.
Completion: 246.63

Prompt: Consider the molecule *c1ccc(N/C=N/c2ccc(S(*)(=O)=O)cc2)cc1 (repeat unit) and give its recorded glass transition temperature.
Completion: 163.00

Prompt: Consider the molecule *c1ccc(Oc2ccc(C(=O)c3ccc(-c4ccc(C(=O)c5ccc(Oc6ccc(-c7nc(-c8ccc(-c9nc(*)c(-c%10ccccc%10)[nH]9)cc8)[nH]c7-c7ccccc7)cc6)cc5)cc4)cc3)cc2)cc1 (repeat unit) and give its recorded glass transition temperature.
Completion: 273.00

Prompt: Consider the molecule *NC(C)(CC)C(*)=O (repeat unit) and give its recorded glass transition temperature.
Completion: 74.2

Prompt: Consider the molecule *c1cccc(OCCCCCCCCCCOc2cccc(N3C(=O)c4ccc(-c5cccc6c5C(=O)N(*)C6=O)cc4C3=O)c2)c1 (repeat unit) and give its recorded glass transition temperature.
Completion: 127.00

Prompt: Consider the molecule *C(=O)c1ccc(N(*)CCC)cc1 (repeat unit) and give its recorded glass transition temperature.
Completion: 136.00

Prompt: Consider the molecule *CCN(CCN1C(=O)c2ccc(C(c3ccc4c(c3)C(=O)N(*)C4=O)(C(F)(F)F)C(F)(F)F)cc2C1=O)c1ccc(/N=N/c2ccc(C3OCCO3)cc2)cc1 (repeat unit) and give its recorded glass transition temperature.
Completion: 178.00

Prompt: Consider the molecule *CC(*)(C)C(=O)OCCCCCCCCCCOc1ccc(C#Cc2cc(C)c(/C=C/c3ccncc3)cc2C)cc1 (repeat unit) and give its recorded glass transition temperature.
Completion: 65.40

Prompt: Consider the molecule *NNC(=O)/C=C/C(=O)Nc1cccc(/C=C2\CC/C(=C\c3cccc(NC(=O)/C=C/C(*)=O)c3)C2=O)c1 (repeat unit) and give its recorded glass transition temperature.
Completion: 104.60

Prompt: Consider the molecule *CCOC(=O)c1ccc(C(C)(CC)c2ccc(C(=O)O*)cc2)cc1 (repeat unit) and give its recorded glass transition temperature.
Completion: 95.00

Prompt: Consider the molecule *CC(*)C(F)(F)C(F)(F)F (repeat unit) [Poly[(pentafluoroethyl)ethylene] ] and give its recorded glass transition temperature.
Completion: 41

Prompt: Consider the molecule *O[Si](*)(CCCOCCOCCOCCOCCOC)CCCOCCOCCOCCOCCOC (repeat unit) and give its recorded glass transition temperature.
Completion: -69.80
